molecular target: AR (Homo sapiens, UniProt P10275, T878A); construct: into the androgen-dependent PCa cells (LNCaP); endogenous in cells; host or cells: LNCaP-ARR2PB-eGFP; test: AR transcriptional activity, LNCaP-ARR2PB-eGFP reporter cells; assay type: cell-based; settings: read-out: IC50 AR transcriptional activities
Sequence (P10275 whole entry T878A): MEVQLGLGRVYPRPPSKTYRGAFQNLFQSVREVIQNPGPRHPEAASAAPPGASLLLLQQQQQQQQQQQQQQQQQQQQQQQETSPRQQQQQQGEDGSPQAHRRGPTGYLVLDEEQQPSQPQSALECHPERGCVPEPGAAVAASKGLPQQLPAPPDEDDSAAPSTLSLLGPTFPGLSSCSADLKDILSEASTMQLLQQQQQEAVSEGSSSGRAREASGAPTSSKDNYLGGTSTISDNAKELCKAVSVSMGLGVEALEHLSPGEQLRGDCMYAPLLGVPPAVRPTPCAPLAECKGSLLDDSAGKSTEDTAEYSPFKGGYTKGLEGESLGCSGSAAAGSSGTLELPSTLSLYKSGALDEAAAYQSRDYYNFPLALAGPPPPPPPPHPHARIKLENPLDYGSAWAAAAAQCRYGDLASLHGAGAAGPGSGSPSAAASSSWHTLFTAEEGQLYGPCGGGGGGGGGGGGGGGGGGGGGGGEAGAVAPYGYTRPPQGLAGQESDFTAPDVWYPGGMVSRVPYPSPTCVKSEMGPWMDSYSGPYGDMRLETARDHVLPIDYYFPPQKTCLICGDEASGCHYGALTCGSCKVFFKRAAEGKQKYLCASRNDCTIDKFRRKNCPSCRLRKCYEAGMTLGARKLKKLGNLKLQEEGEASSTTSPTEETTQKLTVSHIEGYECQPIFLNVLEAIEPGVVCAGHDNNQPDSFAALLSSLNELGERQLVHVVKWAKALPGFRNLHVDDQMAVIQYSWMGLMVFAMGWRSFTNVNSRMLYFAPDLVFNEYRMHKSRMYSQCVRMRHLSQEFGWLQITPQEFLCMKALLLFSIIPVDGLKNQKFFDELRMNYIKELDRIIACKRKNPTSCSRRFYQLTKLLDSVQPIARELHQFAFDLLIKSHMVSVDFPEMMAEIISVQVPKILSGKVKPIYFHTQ
Measured Parameter: IC50 (µM)

[[record]]
molecule = "CC(Cc1nsc(NC(=O)c2csc(-c3cccc(OC(F)F)c3)c2)n1)N1CCN(C)CC1 [Compound D-19]"
measured_parameter = "IC50"
numeric_readout = 19.2

[[record]]
molecule = "CC(=O)Cc1nsc(NC(=O)c2cc(-c3cccnc3)oc2C)n1 [Compound A-31]"
measured_parameter = "IC50"
numeric_readout = 6.33

[[record]]
molecule = "COc1cccc(-c2cc(C(=O)Nc3nc(CC(C)=O)ns3)c(C)o2)c1 [Compound A-4]"
measured_parameter = "IC50"
numeric_readout = 0.35


A = CC(=O)Cc1nsc(NC(=O)c2coc(-c3cccc(C#N)c3)c2)n1 [Compound B-2]
B = Cc1sc(-c2cccc(OC(F)F)c2)cc1C(=O)Nc1nc(CN2CCCCC2)ns1 [Compound C-56]
Identify the entry with the smaller IC50: A or B . In your reply, give the label of the chosen option.
B
(B: 12.9 µM, A: 54.9 µM)

a = CC(Cc1nsc(NC(=O)c2cc(-c3cccc(OC(F)(F)F)c3)co2)n1)N1CCN(C)CC1 (centres unmarked) [Compound G-9]
b = CCN(CC)Cc1nsc(NC(=O)c2cc(-c3cccc(C(F)(F)F)c3)oc2C)n1 [Compound A-107]
c = Cc1oc(-c2cccc(C(F)(F)F)c2)cc1C(=O)Nc1nc(CC(C)N2CCN(C)CC2)ns1 (centres unmarked) [Compound A-43]
Sort the 3 molecules by IC50; largest first, smallest last. Put the labels in the order asked and list them.
a, b, c
(a: 47.2 µM, b: 1.77 µM, c: 0.04 µM)

###

target: AR (Homo sapiens, UniProt P10275, T878A); construct: into the androgen-dependent PCa cells (LNCaP); endogenous in cells; host or cells: LNCaP-ARR2PB-eGFP; assay: AR transcriptional activity, LNCaP-ARR2PB-eGFP reporter cells; assay type: cell-based; details: read-out: IC50 AR transcriptional activities
pIC50: −log10 of the molar value.
Measured Parameter: pIC50

Consider the worked cases shown below.
[[record]]
compound = "Cc1oc(-c2cccc(C(F)(F)F)c2)cc1C(=O)Nc1nc(CCl)ns1"
numeric_readout = 4.64

[[record]]
compound = "CC(Cc1nsc(NC(=O)c2cc(-c3cccc(OC(F)(F)F)c3)oc2C(F)(F)F)n1)N1CCOCC1 (centres unmarked)"
numeric_readout = 6.00

[[record]]
compound = "COc1cccc(-c2coc(C(=O)Nc3nc(CC(C)=O)ns3)c2)c1"
numeric_readout = 4.47


a = Cc1oc(-c2cccc(C(F)(F)F)c2)cc1C(=O)Nc1ncns1
b = COc1cccc(-c2cc(C(=O)Nc3nc(CC(C)N4CCCCC4)ns3)c(C)o2)c1 (centres unmarked)
c = CC(=O)Cc1nsc(NC(=O)c2cc(-c3cccc(C#N)c3)oc2C(F)(F)F)n1
Sort the 3 compounds by pIC50; largest first, smallest last. Put the labels in the order asked and list them.
b, c, a
(b: 6.68, c: 5.65, a: 4.98)

A = CC(=O)Cc1nsc(NC(=O)c2cc(-c3ccccc3)oc2C)n1
B = CC(=O)Cc1nsc(NC(=O)c2csc(-c3cccc(C(F)(F)F)c3)c2)n1
C = Cc1oc(-c2cccc(OC(F)F)c2)cc1C(=O)Nc1nc(CN2CCCCC2)ns1
Sort low-to-high on pIC50, please. Put the labels in the order asked and list them.
B, A, C

A = Cc1oc(-c2cccc(OC(F)F)c2)cc1C(=O)Nc1nc(CN2CCOCC2)ns1
B = Cc1oc(C(=O)Nc2nc(CC(C)(F)F)ns2)cc1-c1cccc(OC(F)(F)F)c1
C = Cc1oc(-c2cccc(C(F)(F)F)c2)cc1C(=O)Nc1nc(CN(C)C)ns1
D = CC(=O)Cc1nsc(NC(=O)c2csc(-c3cccc(OC(F)(F)F)c3)c2)n1
E = Cc1sc(-c2cccc(C(F)(F)F)c2)cc1C(=O)Nc1nc(CC(C)O)ns1 (centres unmarked)
Sort low-to-high on pIC50, please. Put the labels in the order asked and list them.
D, B, E, C, A
(D: 4.38, B: 4.60, E: 5.34, C: 5.78, A: 6.17)
